Assay: log P by HPLC on reversed-phase column (C18), EEC Directive 79/831 Annex V.A8
Type: physicochemical
Details: C18, 40° C., aqueous formic acid / acetonitrile
measurement name: log p HCO2H

Reference set, count: 4
item_smiles=CCc1cc(Oc2cc(C)c(N=CN3CCCCC3)cc2Cl)ccc1Cl observed=2.74
item_smiles=Cc1cc(N=CN(C)C(C)C)c(Cl)cc1Oc1cccc(C(C)(C)C)c1 observed=2.54
item_smiles=COc1cc(Oc2ccc(Cl)c(C(C)(C)C)c2)c(OC)cc1N=CN(C)C observed=3.11
item_smiles=CCN(C)C=Nc1cc(C)c(Oc2cccc(Oc3ccccc3)c2)cc1Cl observed=2.47

[a] CN(C)C=Nc1cc(Cl)c(Oc2ccc(Cl)c(C(C)(C)C)c2)cc1Cl
[b] CCN(C)C=Nc1cc(Cl)c(Oc2nc(C(C)(C)C)ns2)cc1C
Request: Of a and b , which carries the smaller reported log p HCO2H figure? Your answer should be the label of the entry you select.
Response: b
(b: 2.01, a: 2.94)

Recorded values, source patent US20100113276A1.
